Assay: Solubility of pazopanib as a function of pH in phosphate buffer
Type: physicochemical
Conditions: phosphate buffer, 25 °C, pH 4.25, aqueous buffer, thermodynamic from solid, pH 4.25; 25° C.; read-out: solubility in phosphate buffer

{"columns": ["compound.string", "u", "solubility at 5 days"],
 "data": [
  ["Cc1ccc(Nc2nccc(N(C)c3ccc4c(C)n(C)nc4c3)n2)cc1S(N)(=O)=O", "µg/mL", 0.534]
]}

====

Assay: Solubility of pazopanib as a function of pH in phosphate buffer
Format: physicochemical
Settings: phosphate buffer, 25 °C, pH 4.5, aqueous buffer, thermodynamic from solid, pH 4.5; 25° C.; read-out: solubility, So
readout.type: solubility at 5 days

{"columns": ["compound", "experimental.value"],
 "data": [
  ["Cc1ccc(Nc2nccc(N(C)c3ccc4c(C)n(C)nc4c3)n2)cc1S(N)(=O)=O [pazopanib]", "0.0571 µM"]
]}

====

Test: Solubility of pazopanib as a function of pH in phosphate buffer
Type: physicochemical
Conditions: phosphate buffer, 25 °C, pH 4.5, aqueous buffer, thermodynamic from solid, pH 4.5; 25° C.; read-out: solubility in phosphate buffer
readout.type: solubility at 5 days (µg/mL)

{"columns": ["compound.string", "u", "experimental.value"],
 "data": [
  ["Cc1ccc(Nc2nccc(N(C)c3ccc4c(C)n(C)nc4c3)n2)cc1S(N)(=O)=O", "µg/mL", 0.025]
]}

====

Experiment: Solubility of pazopanib as a function of pH in phosphate buffer
Format: physicochemical
Details: phosphate buffer, 25 °C, pH 4, aqueous buffer, thermodynamic from solid, pH 4.0; 25° C.; read-out: solubility in phosphate buffer
readout.type: solubility at 5 days

{"columns": ["compound", "experimental.value"],
 "data": [
  ["Cc1ccc(Nc2nccc(N(C)c3ccc4c(C)n(C)nc4c3)n2)cc1S(N)(=O)=O [pazopanib]", "1.04 µg/mL"]
]}

These entries and their values trace back to patent US20130023550A1.
